Tested on: Alternaria solani
PROTOCOL: In vivo preventive test on Alternaria solani (tomato)
RUN_PARAMETERS: 500 ppm of active ingredient, evaluated 7 days after inoculation
MEASURED_PROPERTY: Efficacy (%)

INSERT INTO results (compound, unit_of_measurement, experimental_result) VALUES
  ('Cn1nc(C(F)F)c(C(=O)N(C2CC2)C2CCCC(c3ccccc3)C2)c1F (centres unmarked) [Example 256]', '%', 93),
  ('CC(N(C(=O)c1c(C(F)F)nn(C)c1Cl)C1CC1)C(C)(C)Cc1ccc(Cl)cc1Cl (centres unmarked) [Example 182]', '%', 95),
  ('Cc1ccc(SCC(C2CC2)N(C)C(=O)c2c(C(F)F)nn(C)c2F)cc1 (centres unmarked) [Example 40]', '%', 95),
  ('Cn1nc(C(F)F)c(C(=O)NCCOc2ccc(C(F)(F)F)cc2)c1Cl [Example 69]', '%', 80),
  ('CN(C(=O)c1c(C(F)F)nn(C)c1F)C(CSCc1ccccc1)C1CC1 (centres unmarked) [Example 225]', '%', 95),
  ('Cn1nc(C(F)F)c(C(=O)NCCOc2cccc(Oc3ccccc3)c2)c1F [Example 74]', '%', 95),
  ('CC(COc1cc(Cl)cc(Cl)c1)NC(=O)c1c(C(F)F)nn(C)c1Cl (racemic) [Example 122]', '%', 100),
  ('Cn1nc(C(F)F)c(C(=O)NC(C)(C)CCc2cccc(Cl)c2)c1Cl [Example 83]', '%', 95);

====

PROTOCOL: log P by HPLC on reversed-phase column (EEC Directive 79/831 Annex V.A8)
Type: physicochemical
Method: In table 1, the log P values were determined in accordance with EEC Directive 79/831 Annex V.A8 by HPLC (High Performance Liquid Chromatography) on a reversed-phase column (C18), using the method described below: Temperature: 40° C.; […]
MEASURED_PROPERTY: logP

INSERT INTO assay_data (compound, experimental_result) VALUES
  ('Cn1nc(C(F)F)c(C(=O)N(CC#Cc2cc3ccccc3s2)C2CC2)c1F', 3.85),
  ('Cn1nc(C(F)F)c(C(=O)NC(C)(C)CCc2cccc(C(F)(F)F)c2)c1F', 3.94),
  ('CCCN(CC(=O)Nc1c(Cl)cc(Cl)cc1Cl)C(=O)c1c(C(F)F)nn(C)c1Cl', 3.11),
  ('Cn1nc(C(F)F)c(C(=O)NC2CCCCC2CCC(C)(C)C)c1F (single isomer, unassigned) [Example 357]', '4.50 isomer A');

====

Tested on: Alternaria solani
PROTOCOL: In vivo preventive test on Alternaria solani (tomato)
RUN_PARAMETERS: 500 ppm of active ingredient, evaluated 7 days after inoculation
MEASURED_PROPERTY: Efficacy (%)

INSERT INTO assay_data (compound, measured_property, experimental_result) VALUES
  ('Cn1nc(C(F)F)c(C(=O)NC2(COc3ccc(Cl)cc3)CC2)c1F', 'Efficacy', 100),
  ('Cn1nc(C(F)F)c(C(=O)NC2(COc3ccc(Cl)cc3)CC2)c1Cl', 'Efficacy', 95),
  ('CC(CCc1cc(Cl)ccc1Cl)NC(=O)c1c(C(F)F)nn(C)c1F (centres unmarked)', 'Efficacy', 100),
  ('CCC(COc1cc(Cl)ccc1Cl)NC(=O)c1c(C(F)F)nn(C)c1F (centres unmarked)', 'Efficacy', 95),
  ('CC(O)C1CCCCC1NC(=O)c1c(C(F)F)nn(C)c1F (single isomer, unassigned)', 'Efficacy', 80),
  ('CC(N(C(=O)c1c(C(F)F)nn(C)c1F)C1CC1)C(C)(C)Cc1ccccc1 (centres unmarked)', 'Efficacy', 90),
  ('Cn1nc(C(F)F)c(C(=O)N(C[Si](C)(C)Cc2ccc(Cl)cc2Cl)C2CC2)c1Cl', 'Efficacy', 100),
  ('CC(CCc1ccc(Cl)c(Cl)c1)NC(=O)c1c(C(F)F)nn(C)c1Cl (racemic)', 'Efficacy', 95),
  ('CC(CCc1ccc(Cl)cc1Cl)N(C(=O)c1c(C(F)F)nn(C)c1Cl)C1CC1 (centres unmarked)', 'Efficacy', 95),
  ('CC(C)CC(C)C1CCCC1NC(=O)c1c(C(F)F)nn(C)c1Cl (mixture of isomers) [Example 311]', 'Efficacy', 100),
  ('CC(CCc1ccccc1Cl)NC(=O)c1c(C(F)F)nn(C)c1F (racemic)', 'Efficacy', 100),
  ('CCC(C)C(C)N(C(=O)c1c(C(F)F)nn(C)c1F)C1CC1 (mixture of isomers)', 'Efficacy', 95),
  ('CC(CCc1ccccc1)NC(=O)c1c(C(F)F)nn(C)c1F (centres unmarked)', 'Efficacy', 95),
  ('CC(CNC(=O)c1c(C(F)F)nn(C)c1Cl)Cc1ccc(Cl)c(Cl)c1 (racemic)', 'Efficacy', 90),
  ('Cn1nc(C(F)F)c(C(=O)NC(C)(C)CCc2ccc(Cl)cc2Cl)c1F', 'Efficacy', 95),
  ('Cn1nc(C(F)F)c(C(=O)NC(COc2ccc(Cl)cc2Cl)C2CC2)c1Cl (centres unmarked)', 'Efficacy', 70),
  ('CCCCC1CCCC1NC(=O)c1c(C(F)F)nn(C)c1F (centres unmarked)', 'Efficacy', 100);

====

PROTOCOL: log P by HPLC on reversed-phase column (EEC Directive 79/831 Annex V.A8)
Type: physicochemical
MEASURED_PROPERTY: logP

INSERT INTO assay_data (compound, experimental_result) VALUES
  ('CC(CCc1c(Cl)cc(Cl)cc1Cl)N(C(=O)c1c(C(F)F)nn(C)c1Cl)C1CC1 (stereo not drawn) [Example 214]', 4.31),
  ('CC(CNC(=O)c1c(C(F)F)nn(C)c1F)Cc1cc(Cl)cc(Cl)c1 (stereo not drawn) [Example 116]', 3.83),
  ('CC(CSCc1ccco1)N(C)C(=O)c1c(C(F)F)nn(C)c1Cl (stereo not drawn) [Example 239]', 2.64),
  ('CN(CC#Cc1ccccc1)C(=O)c1c(C(F)F)nn(C)c1Cl [Example 270]', 2.92),
  ('Cn1nc(C(F)F)c(C(=O)NC(COc2ccccc2)C2CC2)c1F (stereo not drawn) [Example 19]', 3.06),
  ('CCN(C(=O)c1c(C(F)F)nn(C)c1F)C(C)COc1ccc(C)cc1 (stereo not drawn) [Example 38]', 3.27),
  ('CCCN(CCCOc1c(C)cc(C)cc1C)C(=O)c1c(C(F)F)nn(C)c1Cl [Example 234]', 4.39),
  ('Cn1nc(C(F)F)c(C(=O)NCCCc2ccco2)c1F [Example 100]', 2.17);

====

System: Alternaria solani
PROTOCOL: In vivo preventive test on Alternaria solani (tomato)
RUN_PARAMETERS: 500 ppm of active ingredient, evaluated 7 days after inoculation
Measured Efficacy of individual entries
MEASURED_PROPERTY: Efficacy (%)

INSERT INTO measurements (compound, measured_target, experimental_result) VALUES
  ('CCC(CCc1sccc1Br)NC(=O)c1c(C(F)F)nn(C)c1F (centres unmarked) [Example 89]', 'Alternaria solani', 80),
  ('Cn1nc(C(F)F)c(C(=O)N(C[Si](C)(C)Cc2ccccc2)C2CC2)c1F [Example 288]', 'Alternaria solani', 100),
  ('Cn1nc(C(F)F)c(C(=O)NC(COc2ccccc2)C2CC2)c1F (centres unmarked) [Example 19]', 'Alternaria solani', 95),
  ('Cn1nc(C(F)F)c(C(=O)NCC2CCCC(C(F)(F)F)C2)c1Cl (mixture of isomers) [Example 378]', 'Alternaria solani', 100),
  ('CC1CCCC(C)(C)C1CCC(C)N(C(=O)c1c(C(F)F)nn(C)c1F)C1CC1 (centres unmarked) [Example 367]', 'Alternaria solani', 90),
  ('CC(CCc1ccccc1C(F)(F)F)N(C(=O)c1c(C(F)F)nn(C)c1Cl)C1CC1 (centres unmarked) [Example 220]', 'Alternaria solani', 95),
  ('CC(CC(C)(C)C)C1CCCCC1NC(=O)c1c(C(F)F)nn(C)c1F (single isomer, unassigned) [Example 361]', 'Alternaria solani', 95),
  ('Cc1cccc(OC2CCCC2NC(=O)c2c(C(F)F)nn(C)c2F)c1 (centres unmarked) [Example 259]', 'Alternaria solani', 90);

====

PROTOCOL: log P by HPLC on reversed-phase column (EEC Directive 79/831 Annex V.A8)
Format: physicochemical
MEASURED_PROPERTY: logP

INSERT INTO assay_data (molecule, experimental_result) VALUES
  ('CSC1CCCCC1N(C(=O)c1c(C(F)F)nn(C)c1Cl)C1CC1 (stereo not shown) [Example 352]', 3.73),
  ('Cn1nc(C(F)F)c(C(=O)NC(CSc2ccccc2)C2CC2)c1F (stereo not shown) [Example 22]', 3.25),
  ('CC(C)N(CCOc1c(Cl)cc(Cl)cc1Cl)C(=O)c1c(C(F)F)nn(C)c1Cl [Example 208]', 4.71),
  ('Cc1ccsc1CCC(C)NC(=O)c1c(C(F)F)nn(C)c1F (stereo not shown) [Example 77]', 3.02),
  ('CC(CC1CCCCC1)N(C(=O)c1c(C(F)F)nn(C)c1Cl)C1CC1 (stereo not shown) [Example 371]', 4.56),
  ('Cn1nc(C(F)F)c(C(=O)NCCCc2ccc(Cl)cc2Cl)c1Cl [Example 179]', 3.68),
  ('CCCCCCC1CCCCC1NC(=S)c1c(C(F)F)nn(C)c1F (stereo not shown) [Example 327]', 5.81),
  ('Cc1ccnc(OCC(C)NC(=O)c2c(C(F)F)nn(C)c2Cl)c1 (stereo not shown) [Example 37]', 2.13),
  ('CC(CNC(=O)c1c(C(F)F)nn(C)c1Cl)Cc1c(F)cccc1F (stereo not shown) [Example 158]', 3.21),
  ('CON(C(=O)c1c(C(F)F)nn(C)c1F)C(C)CCc1c(Cl)cc(Cl)cc1Cl (stereo not shown) [Example 217]', 4.77),
  ('Cc1ccsc1C#CCN(C(=O)c1c(C(F)F)nn(C)c1F)C1CC1 [Example 283]', 3.31),
  ('CC#CC1(NC(=O)c2c(C(F)F)nn(C)c2F)CCCCC1 [Example 382]', 2.90),
  ('Cc1cccc(C)c1OCC(C)N(C(=O)c1c(C(F)F)nn(C)c1F)C1CC1 (stereo not shown) [Example 155]', 3.94),
  ('CN(c1ccc(Oc2ccccc2)cc1)C(CNC(=O)c1c(C(F)F)nn(C)c1Cl)C(F)(F)F (stereo not shown) [Example 32]', 4.27),
  ('CN(CC#Cc1ccco1)C(=O)c1c(C(F)F)nn(C)c1F [Example 281]', 2.32),
  ('CCCCC1CCCC1NC(=O)c1c(C(F)F)nn(C)c1F (stereo not shown) [Example 306]', 3.59),
  ('CC(COc1ccccc1)NC(=O)c1c(C(F)F)nn(C)c1Cl (stereo not shown) [Example 14]', 2.84),
  ('CC(CCc1cccs1)N(C(=O)c1c(C(F)F)nn(C)c1Cl)C1CC1 (stereo not shown) [Example 103]', 3.57),
  ('CCC(CCc1sccc1Br)NC(=O)c1c(C(F)F)nn(C)c1F (stereo not shown) [Example 89]', 3.46);
